Test system: corn
Assay: Example 21, Procedure II: Herbicide No. 1 + SUTAN PLUS (butylate + antidote) with antidotes
Type: in vivo
Details: Herbicide No.1 1.12 kg/ha + SUTAN + 8.96 kg/ha; antidote 8.96 kg/ha
measurement-type: % Injury Corn
The reply must contain the numeric value and, after it, the unit.

Example cases with answers are listed next.
CC1(C)OC(c2ccco2)CN1C(=O)C(Cl)Cl (centres unmarked) [compound 15]: 20%
CC1(C(Cl)Cl)OCCO1 [compound 13]: 10%
O=C(C(Cl)Cl)N1CCOC12CCCCC2 [compound 7]: 15%

input: Report % Injury Corn for C=CCN(CC=C)C(=O)C(Cl)Cl [compound 1] please.
output: 20%

input: Okay, and O=C1OC(=O)c2cccc3cccc1c23 [compound 2] ?
output: 15%

----------
Collected % Injury BYG values appear next to each entry.
Test system: barnyardgrass (Echinochloa crusgalli)
Test: Example 11, Procedure II: Herbicide No. 1 + metazachlor (No. 14) with antidotes
Assay type: in vivo
Settings: Herbicide No.1 0.56 kg/ha + Herbicide No.14 3.36 kg/ha; antidote rate 8.96 kg/ha
Give just the numeric value; % need not be written.

Example cases with answers are listed next.
O=C(C(Cl)Cl)N1CCOC12CCCCC2 [compound 7]: 100
CC1(C(Cl)Cl)OCCO1 [compound 13]: 100
O=C1OC(=O)c2cccc3cccc1c23 [compound 2]: 99

input: Report % Injury BYG for C=CCN(CC=C)C(=O)C(Cl)Cl [compound 1] please.
output: 100

input: Okay, and CC1(C)OC(c2ccco2)CN1C(=O)C(Cl)Cl (centres unmarked) [compound 15] ?
output: 100

----------
Tested on: corn
Test: Example 19, Procedure II: Herbicide No. 1 + ERADICANE EXTRA with added antidotes
Assay type: in vivo
Details: Herbicide No.1 1.12 kg/ha + ERADICANE EXTRA 8.96 kg/ha; antidote 8.96 kg/ha
Collected % Injury Corn values appear next to each entry.
Give just the numeric value; % need not be written.

C=CCN(CC=C)C(=O)C(Cl)Cl [compound 1]: 25

Now for another entry.
input: Report % Injury Corn for CC1(C)OC(c2ccco2)CN1C(=O)C(Cl)Cl (centres unmarked) [compound 15] please.
output: 25

----------
System: Giant foxtail (Setaria fabergi)
Assay: Example 23, Procedure II: Antidote Nos. 15 and 17-21 against Herbicide No. 1, 13 days after application
Format: in vivo
Details: Table 23A, Herb. No. 1 0.14 Kg/Ha + antidote 2.24 Kg/ha
Collected % Inhibition GFT values appear next to each entry.
Give just the numeric value; % need not be written.

Example cases with answers are listed next.
CC1(C)OC(c2ccco2)CN1C(=O)C(Cl)Cl (stereo not drawn) [compound 15]: 20
O=C(O)COC(c1ccccc1)c1ccccc1 [compound 19]: 15
O=C(O)COC(c1ccccc1)c1ccccc1 [compound 18]: 15

input: Report % Inhibition GFT for COC(=O)COC(c1ccccc1)c1ccccc1 [compound 20] please.
output: 15

input: Okay, and CCSC(=O)COC(c1ccccc1)c1ccccc1 [compound 21] ?
output: 10

input: Okay, and CC1COc2ccccc2N1C(=O)C(Cl)Cl (stereo not drawn) [compound 17] ?
output: 25

----------
Tested on: barnyardgrass (Echinochloa crusgalli)
Experiment: Example 19, Procedure II: Herbicide No. 1 + ERADICANE EXTRA with added antidotes
Format: in vivo
Conditions: Herbicide No.1 0.56 kg/ha + ERADICANE EXTRA 8.96 kg/ha; antidote 8.96 kg/ha
measurement-type: % Injury BYG (%)
Give just the numeric value; % need not be written.

Example cases with answers are listed next.
O=C1OC(=O)c2cccc3cccc1c23: 90
CC1(C)OC(c2ccco2)CN1C(=O)C(Cl)Cl (centres unmarked): 85
O=C(C(Cl)Cl)N1CCOC12CCCCC2: 85
C=CCN(CC=C)C(=O)C(Cl)Cl: 90

input: Can you look up % Injury BYG on barnyardgrass (Echinochloa crusgalli) for CC1(C(Cl)Cl)OCCO1 ?
output: 90
